assay: compounds binding Alexa647 anti-His antibody – biochemical, small-molecule microarray, 635 nm fluorescence, artefact control for SMM control protein annotation, primary screen (AID 1128); details: higher = more signal;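 also: score merges feature fluorescence with signal-to-noise for each printed compound spot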
readout type: composite z-score

1. COc1cc(CO)cc(I)c1O[C@H]1C=C(C(=O)NCCO)C[C@@H](NC[C@@H]2CCCO2)[C@@H]1O :: 0.296
2. C=CCOC(=O)[C@H]1[C@@H]2C(=O)O[C@@H](c3ccccc3)[C@@H](c3ccccc3)N2[C@@H](c2ccc(OCCOC(=O)[C@@H]3C[C@@H]4C(=O)N5CCC[C@H]5C(=O)N4[C@@H]3c3cccc(OCCO)c3)cc2)[C@]12C(=O)Nc1ccc(I)cc12 :: 1.55
3. O=C1NC(=O)C2C1C=CC(C(O)C1CC=CCC1)N2Nc1ccccn1 (configuration not stated) :: 1.33
4. O=C1C2C=CC(C(O)C=Cc3ccc([N+](=O)[O-])cc3)N(Nc3ccccc3F)C2C(=O)N1c1ccccc1 (configuration not stated) :: 1.41
5. COc1ccc([Si](C)(C)[C@H]2[C@H](CC(=O)N3CCC[C@H]3CO)O[C@@]3(C(=O)N(Cc4cccc(N5CCOC5=O)c4)c4ccccc43)[C@@H]2C)cc1 :: 1.3
6. O=C1C2C=CC(C(O)c3ccc(F)cc3)N(Nc3ccc([N+](=O)[O-])cc3)C2C(=O)N1c1ccccc1 (configuration not stated) :: 1.76
7. COC(=O)[C@@]1(Cc2ccccc2)[C@H]2c3cc(C(=O)N(C)C)n(Cc4ccc(OC)c(OC)c4)c3C[C@H]2CN1C(=O)c1ccccc1 :: 1.81

---

assay: viability profiling in MM1S myeloma cells – cell-based, resazurin fluorescence, basal, 24 h, PK04 Diversity Set, profiling panel (AID 1174); settings: higher = more signal, called active from +8 up or from −8 down;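 also: MM1S multiple myeloma cell line; test concentration not given here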
# reported z-score; entries follow
readout type: z-score

1. CC(c1ccccc1)C(O)C1C=CC2C(=O)N(c3ccccc3)C(=O)C2N1Nc1ccccc1 (stereo not drawn) :: -1.4
2. COC(=O)[C@@]1(Cc2ccc(OC)cc2)[C@H]2c3cc(C(=O)N4CCCC4)n(CCc4ccc(O)c(O)c4)c3C[C@H]2CN1C(=O)c1ccccc1 :: -1.79
3. COCCCNC(=O)[C@@H]1c2ccccc2C(=O)N(Cc2ccccc2OC)[C@H]1c1ccc(CO)cc1 :: 1.71
4. CC#CC(=O)Oc1ccc(Br)cc1C=CC(=O)OCC :: -2.38
5. C=C(CCCC)C(=O)CC[C@@H](OC(C)=O)c1ccc(CO)o1 :: 0.292
6. CN(C)CCCC[C@@H]1NC(=O)[C@H]2C[C@@H](C(=O)NCCCCCN)[C@@H](c3cccc(OCCO)c3)N2C1=O :: 0.606
7. O=C1NC(=O)C2C1C=CC(C(O)c1ccc(I)cc1)N2Nc1ccccn1 (stereo not drawn) :: -0.766
8. COc1ccc([Si](C)(C)[C@@H]2[C@@H](CCn3cc(CCO)nn3)O[C@]3(C(=O)N(Cc4cccc(N5C(=O)c6cccc7cccc5c67)c4)c4ccccc43)[C@H]2C)cc1 :: -6.83

---

test: hepatitis C replication reporter changes, two-sided – Huh7 cells, luciferase reporter, HCV replication inhibitor project, primary screen (AID 1109); conditions: Huh7 HCV replicon luciferase reporter, 48 h; higher = more signal;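 also: huh7 hepatoma cells harbouring a luciferase neomycin HCV replicon reporter; luciferase luminescence as measure of HCV replicon replication; test concentration not given here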
Mark not fulfilled for z-score values under -1, and fulfilled for everything at or above.

1. O=c1cccc(-c2ccccc2Cl)o1 :: fulfilled
2. O=C1C2C=CC(C(O)COCc3ccccc3)N(Nc3ccc([N+](=O)[O-])cc3)C2C(=O)N1c1ccccc1 (centres undefined) :: not fulfilled
3. CC(C)Cc1ccc(CN2CC[C@@H](N)C2)cc1 :: not fulfilled
4. C[N+](C)(C)CCCCCCNC(=O)[C@H]1C[C@H]2C(=O)N[C@@H](Cc3ccccc3)C(=O)N2[C@H]1c1cccc(OCCO)c1 :: fulfilled
5. O=C1NC(=O)C2C1C=CC(C(O)c1ccc(I)cc1)N2Nc1ccccn1 (centres undefined) :: fulfilled
6. CCOC(=O)C1=CCC(c2ccc(F)cc2)N(S(=O)(=O)c2ccc(C)cc2)C1 (centres undefined) :: not fulfilled
7. COC(=O)[C@@]1(Cc2ccccc2)[C@H]2c3cc(C(=O)N4CCCC4)n(Cc4ccc(O)c(OC)c4)c3C[C@H]2CN1C(=O)c1ccccc1 :: not fulfilled
8. O=C(O)C1N=C(c2ccc(OCCCO)cc2)N(c2ccccc2)O1 (centres undefined) :: fulfilled
9. C=CC[C@]1(C(N)=O)COC(c2ccc(OCCCO)cc2)=N1 :: fulfilled
